Origin of values: ChEMBL document CHEMBL1201862

test system: SF-539; test: NCI tumour cell line growth inhibition, 48 h
Activity calls are given as the source filed them. Rule as the data show it: active = GI50 up to about 1.1 µM and inactive = higher.
The compounds listed here are annotated with their GI50.

{"COMPOUND": "Cc1ccc(S(=O)(=O)N2CCNCCN(S(=O)(=O)c3ccc(C)cc3)CCN(S(=O)(=O)c3ccc(C)cc3)CC2)cc1", "TESTED SYSTEM": "SF-539", "MEASURED QUANTITY": "GI50", "DATA VALUE": "> 100 µM (inactive)"}
{"COMPOUND": "COc1ccc(NC(=S)c2ccoc2C)cc1CC(=O)OC(C)C", "TESTED SYSTEM": "SF-539", "MEASURED QUANTITY": "GI50", "DATA VALUE": "37.3 µM (inactive)"}
{"COMPOUND": "NC(=O)C(=O)C(c1ccccc1)S(=O)(=O)Cc1ccccc1 (stereo not given)", "TESTED SYSTEM": "SF-539", "MEASURED QUANTITY": "GI50", "DATA VALUE": "> 100 µM (inactive)"}
{"COMPOUND": "CCc1cccc(C)c1NC(=O)CCc1nnc(S)[nH]1", "TESTED SYSTEM": "SF-539", "MEASURED QUANTITY": "GI50", "DATA VALUE": "> 100 µM (inactive)"}
{"COMPOUND": "O=c1[nH]c2cccc([N+](=O)[O-])c2c(=O)n1-c1ccc(Cl)cc1", "TESTED SYSTEM": "SF-539", "MEASURED QUANTITY": "GI50", "DATA VALUE": "12.3 µM (inactive)"}

Form field GI50, entry O=C1Nc2ccccc2NC1C1OC(c2ccccc2)=CC1=O (stereo not given) : > 100 µM (inactive)

Entry under test: COc1ccc2nc3c(c(N)c2c1)C1CCC3C1(C)C (stereo not given) . Its GI50 was 38.2 µM (inactive)

Data point: "[N-]=[N+]=Nc1ccccc1C(=O)N1C(=O)c2ccccc2C(=O)N(C(=O)c2ccccc2N=[N+]=[N-])c2ccccc21" ; GI50 = 43.7 µM (inactive)

Sample Cc1cc(Br)cc(C)c1NC(=O)C(=O)C(C(=O)c1ccc(Cl)c(Cl)c1)C1OC(=O)c2ccccc21 (stereo not given) ; GI50 observed: 25.2 µM (inactive)

Entry "Nc1ccc2nc(Nc3ccc(Cl)c(Cl)c3)cnc2c1" , GI50 reported as 29.5 µM (inactive)

----------
Each entry below lists one item and its recorded GI50 value.
system: SF-268; assay: NCI tumour cell line growth inhibition, 48 h
Calls of active or inactive are those of the source. Cut-off read from the data, not from the text of the source: active = GI50 up to about 1.1 µM and inactive = higher.

Solved entries (count: 3):
{"COMPOUND": "COc1cc(S(=O)(=O)Nc2ccc(-c3csc(/N=C\\c4ccccc4O)n3)cc2)ccc1Cl", "GI50": "42 µM (inactive)"}
{"COMPOUND": "CCn1c(SCC(=O)N/N=C2\\SCC(=O)N2c2ccc(C)cc2)nc2ccccc2c1=O", "GI50": "20.3 µM (inactive)"}
{"COMPOUND": "CC(C)(C)n1c(=O)n2c(-c3ccccc3)c(-c3ccccc3)n2c1=O", "GI50": "> 100 µM (inactive)"}

# ---- query compound ----
response.value for CCN(CC)C(=O)C(C)n1cc(C)c(=O)[nH]c1=O (stereo not drawn) (field: GI50) = > 100 µM (inactive)

----------
test system: 786-0; experiment: NCI tumour cell line growth inhibition, 48 h
The source made the active and inactive calls. No stated cut-off is given here; in the data, active = GI50 up to about 1.1 µM and inactive = higher.
# GI50 annotations

{"COMPOUND": "O=[N+]([O-])c1nccn1CC1OC(n2ccnc2[N+](=O)[O-])C(O)C(O)C1O (stereo unspecified)", "GI50": "> 100 µM (inactive)"}
{"COMPOUND": "CC1(c2cccs2)CC(c2cccs2)=C(C#N)C(=C(C#N)C#N)N1 (stereo unspecified)", "GI50": "17.3 µM (inactive)"}

Response field GI50 (786-0) for item "CCOC(=O)CSc1nc(-c2ccc(OC)cc2)c(C#N)c(=O)[nH]1" : > 100 µM (inactive)

Measured GI50 for this entry CC(=O)C1C(=O)C(=O)N(c2ccc([N+](=O)[O-])cc2Cl)C1=O (stereo unspecified) on 786-0: > 100 µM (inactive)

GI50 for 786-0 with input "S=C1SCN(C2CCCCCCCCCCC2)CN1C1CCCCCCCCCCC1" equals > 100 µM (inactive)

C[N+](C)(C)CC1CCCC(C[N+](C)(C)C)C1O (stereo unspecified) tested on 786-0 gave GI50: > 100 µM (inactive)

Form field, GI50 with 786-0, item CCCC(=O)OC1CC(n2cc(F)c(=O)[nH]c2=O)OC1CO (stereo unspecified) : 0.342 µM (active)

// returns GI50 for "CC(=O)/C(=C\NC(N)=S)C(=O)Nc1ccccc1C" with 786-0; value = > 100 µM (inactive)

Measured GI50 for this entry "C/C=C1\C=C(OC)CN(CCc2c[nH]c3ccccc23)C1" on 786-0: 59 µM (inactive)

Measured GI50 (786-0), entry "Cc1ccc2[nH]/c(=N/S(=O)(=O)c3cc(C)c(Cl)cc3S)[nH]c2c1" : 45.9 µM (inactive)

Observed GI50 on 786-0, entry C[Si](C)(C)/C=C/CN1C(=O)CCC1O (stereo unspecified) , equals > 100 µM (inactive)

Query "O=C(C[n+]1ccccc1)NNC(=O)/C(=C/c1ccc2c(c1)OCO2)NC(=O)c1ccccc1" on 786-0; GI50 returned: 51.4 µM (inactive)

The compound "O=[N+]([O-])C(C=C(n1nnc2ccccc21)n1nnc2ccccc21)=C(n1nnc2ccccc21)n1nnc2ccccc21" , tested on 786-0, showed GI50 of > 100 µM (inactive)

Short answer on 786-0 for C=CCC1NCCC2=C1C(S(=O)(=O)c1ccc(C)cc1)c1ccccc12 (stereo unspecified) , GI50: 12.9 µM (inactive)

Assay 786-0, sample "CN1CCc2c1nc(-c1ccccc1)c1c2N(C)CC1" , GI50 read: 66.8 µM (inactive)

Form field GI50 for item C/C1=C\CC[C@@]2(C)O[C@@H]2C[C@@H]2[C@H](C/C(C)=C/CC1)OC(=O)C21CCN=N1 (stereo partly specified) on 786-0: > 75 µM (inactive)

With 786-0 as the test system, N#CC1(C#N)C=CC(=C2OCC3CCCN23)C=C1 (stereo unspecified) showed GI50 of > 100 µM (inactive)

Field GI50 (system: 786-0) for entry "C[C@@]1(CBr)C[C@@](C)(/C=C/Cl)[C@@H](Cl)C[C@H]1Cl" = 14 µM (inactive)

Hey, 786-0 data for "Cc1nnc(N/N=C2\C(=O)Nc3ccccc32)n1N" : GI50 came out at > 100 µM (inactive)

The reported GI50 value, 786-0, for C#CC1(O)CCC2[C@@H]3CCc4cc(Oc5nc(F)nc(-c6c7ccccc7c(SCC)n6CCC)n5)ccc4C3CC[C@@]21C (stereo partly specified) reads > 100 µM (inactive)

Given the compound "Cc1nc2ccccc2c(=O)n1NC(=O)c1ccc([N+](=O)[O-])cc1" and test system 786-0, the measured GI50 is > 100 µM (inactive)

----------
tested on: MOLT-4; assay: NCI tumour cell line growth inhibition, 48 h
Calls of active or inactive are those of the source. No stated cut-off is given here; in the data, active = GI50 up to about 1.1 µM and inactive = higher.
Entries and their GI50 values follow.

Field: example entries. Status: answers known.
{"COMPOUND": "COc1c(O)c(OC)c2oc(-c3ccc(O)cc3)c(OC)c(=O)c2c1O", "TESTED SYSTEM": "MOLT-4", "GI50": "57 µM (inactive)"}
{"COMPOUND": "O=C1C=C/C(=N\\c2ccc3c(c2)C(Br)c2ccccc2-3)O1 (centres undefined)", "TESTED SYSTEM": "MOLT-4", "GI50": "26.8 µM (inactive)"}
{"COMPOUND": "CC12C(=O)CC(CC1=O)C2(C)C", "TESTED SYSTEM": "MOLT-4", "GI50": "> 100 µM (inactive)"}
{"COMPOUND": "[N-]=[N+]=CC(=O)OC1Cc2ccccc2C1", "TESTED SYSTEM": "MOLT-4", "GI50": "> 100 µM (inactive)"}
{"COMPOUND": "CCOC1CC2OC(=O)C1C=C2C(=O)OC (centres undefined)", "TESTED SYSTEM": "MOLT-4", "GI50": "17.4 µM (inactive)"}

// GI50 value for "Cc1nc(-n2nc(-c3ccccc3)cc2-c2ccccc2)sc1C(=O)/C=C/c1ccccc1" : 31.8 µM (inactive)

Record "O=S1(=O)OCc2ccccc21" . Reported GI50: 15.7 µM (inactive)

Sure, the documented GI50 for CN1CCOC(C(NC(=O)c2ccccc2)c2ccccc2)C1=O (centres undefined) is > 100 µM (inactive)

Record summary for CC1OC(OC2C(O)COC(OC3C(C)OC(OC4C(OC(=O)[C@]56CCC(C)(C)C[C@@H]5C5=CCC7[C@@]8(C)C[C@H](O)[C@H](OC9OC(CO)C(O)C(O)C9O)[C@@](C)(CO)[C@@H]8CC[C@@]7(C)[C@]5(C)CC6)OCC(O)C4O)C(O)C3OC3OCC(O)(CO)C3O)C2O)C(O)C(O)C1O (some centres undefined) : reported GI50 = 15.7 µM (inactive)
